- Target: Botulinum neurotoxin type A (Clostridium botulinum, UniProt P0DPI0)
- Sequence (P0DPI0 2-448 limits assumed): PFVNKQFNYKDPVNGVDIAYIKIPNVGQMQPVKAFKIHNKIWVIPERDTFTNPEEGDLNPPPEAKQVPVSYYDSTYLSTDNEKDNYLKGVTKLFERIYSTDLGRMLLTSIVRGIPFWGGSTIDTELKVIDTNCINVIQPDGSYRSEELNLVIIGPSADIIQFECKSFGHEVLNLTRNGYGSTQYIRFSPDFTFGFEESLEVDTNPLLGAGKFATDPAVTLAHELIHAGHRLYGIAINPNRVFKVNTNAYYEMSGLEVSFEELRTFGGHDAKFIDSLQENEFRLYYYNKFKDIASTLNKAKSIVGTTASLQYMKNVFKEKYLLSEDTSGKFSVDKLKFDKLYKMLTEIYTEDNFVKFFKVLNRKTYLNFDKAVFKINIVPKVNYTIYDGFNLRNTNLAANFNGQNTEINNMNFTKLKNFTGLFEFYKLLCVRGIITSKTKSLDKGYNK
- Protocol notes: Competitive inhibition of recombinant Clostridium botulinum neurotoxin serotype A light chain assessed as [13C]-labeled 9-mer cleavage product formation using 66-mer substrate after 25 mins by LC-MS method
- Assay conditions: read-out: IC50
Would you mind telling me the reported IC50 of each entry?
Answers are plain numbers, in µM.

Below: 3 compounds and their reported IC50.
O=C(NCc1ccc(-c2ccccc2)cc1)c1nc[nH]n1 : 210
O=C1C=CC(=O)C(Nc2cccc(C(=O)NCc3ccc(Oc4ccccc4)cc3)n2)=C1 : 2.3
O=C1C=CC(=O)C(Nc2ccccn2)=C1 : 97

Dear reader, for each entry below, please note its IC50.
1. COc1ccc(OC)c(Cn2cnc(C(=O)NCc3ccc(-c4ccccc4)cc3)n2)c1
2. COc1ccc(OC)c(CNCC(=O)Nc2cccc(OCc3ccccc3)c2)c1
3. O=C1C=CC(=O)C(Cn2cnc(C(=O)NCc3ccc(-c4ccccc4)cc3)n2)=C1
4. O=C1C=CC(=O)C(CNCC(=O)Nc2cccc(OCc3ccccc3)c2)=C1
5. NCC(=O)NCc1ccc(-c2ccccc2)cc1
6. O=C(NCc1ccc(Oc2ccccc2)cc1)c1ccccn1
7. COC(=O)c1cccc(NC2=CC(=O)C=CC2=O)n1
8. COc1ccc(OC)c(Nc2cccc(C(=O)NCc3ccc(Oc4ccccc4)cc3)n2)c1

Reply:
1: 40; 2: 25; 3: 2.5; 4: 18; 5: 160; 6: 570; 7: 14; 8: 200
